# TEST DETAILS: Viability qHTS for spleen associated tyrosine kinase inhibitor (SYKi) drug resistant MV4-11 cells (AID 1963824); also: potency is read from the fitted curve at half-maximal effect; nearly all actives have a fitted effect of over 35% in size
# TEST CONTEXT: SYKi-resistant MV4-11 viability, CellTiter-Glo, 72 h; series mostly up to 45 µM
Inconclusive results are not listed. The source made the active and inactive calls. Calls follow the shape of the dose curve; as a rule, active = well fitted cell-killing curve with a large enough effect; inconclusive = small, poorly fitted or top-dose-only effect, or effect the other way; inactive = no such curve, though single readings can be large or run the other way.
Documented Potency across a set of compounds
VALUE TYPE: Potency

molecule=NC(=O)[C@H]1CCS[C@@H]2C[C@]3(CCCN3C(=O)Cc3ccc(NC(=O)COc4ccc(Cl)cc4Cl)cc3)C(=O)N12 value_type=Potency result="2910 nM (active)"
molecule=Cc1cnc(CNC(=O)c2c(=O)c3ccc(N4CCCN(C)CC4)nc3n3c2sc2ccccc23)cn1 value_type=Potency result="1680 nM (active)"
molecule=O=C(/C=C/c1ccc(CN(CCO)CCc2c[nH]c3ccccc23)cc1)NO value_type=Potency result="59 nM (active)"
molecule=COc1cc(OC)c(NC(=O)c2ccc(Cc3cc4c(cc3C)C(C)(C)CCC4(C)C)o2)c(OC)c1 value_type=Potency result="11600 nM (active)"

====

# TEST DETAILS: Cellular viability qHTS for adrenocortical cancer (ACC) cell line NCI-H295R (AID 1963990); also: nearly all actives have a fitted effect of over 60% in size
# TEST CONTEXT: CellTiter-Glo ATP luminescence, 48 h; series mostly up to 46.1 µM
Records with an inconclusive call do not appear. Calls of active or inactive are those of the source. Calls come from the whole dose curve; as a rule, active = well fitted cell-killing curve with a large enough effect; inconclusive = small, poorly fitted or top-dose-only effect; inactive = flat fitted curve, though single readings scatter.
Classes used: T (active), F (inactive)

compound=CCS(=O)(=O)N1CCC([C@@H](C)n2c(C)c(C(=O)NCc3c(OC)cc(C)[nH]c3=O)c3ccccc32)CC1 classification=F
compound=COc1cc2c(NC3CCN(C)CC3)nc(N3CCCN(C)CC3)nc2cc1OCCCN(C)C classification=F
compound=O=C(O)c1[nH]n(-c2ccc(S(=O)(=O)O)cc2)c(=O)c1N=Nc1ccc(S(=O)(=O)O)cc1 classification=F
compound=Cc1ccc2ccc(Cl)cc2n1 classification=F
compound=Nc1ccn([C@@H]2CS[C@H](CO)O2)c(=O)n1 classification=F
compound="C=CCSCC1Nc2cc(Cl)c(S(N)(=O)=O)cc2S(=O)(=O)N1 (stereo not given)" classification=F
compound=Cc1[nH]cnc1-c1ccc(Cl)cc1 classification=F
compound="CCCCC(CC)COC(=O)c1ccccc1C(=O)O (stereo not given)" classification=F
compound="COP(=O)(OC)OC(c1ccc(Cl)cc1)P(=O)(OC)OC (stereo not given)" classification=F
compound=CC[C@@]1(O)C[C@H](O[C@H]2C[C@H](N(C)C)[C@H](O[C@H]3C[C@H](O)[C@H](O[C@H]4CCC(=O)[C@H](C)O4)[C@H](C)O3)[C@H](C)O2)c2c(cc3c(c2O)C(=O)c2c(O)cccc2C3=O)[C@@H]1C(=O)OC classification=T
compound=Cc1csc(-c2nnc(Nc3ccc(Oc4ncccc4-c4ccnc(N)n4)cc3)c3ccccc23)c1 classification=F
compound=O=C1[C@H](CC[C@H](O)c2ccc(F)cc2)[C@@H](c2ccc(O)cc2)N1c1ccc(F)cc1 classification=F
compound=CN(C)C/C=C(/c1ccc(Br)cc1)c1cccnc1 classification=F
compound=CCOC(=O)[C@H](CCc1ccccc1)N[C@@H](C)C(=O)N1Cc2ccccc2C[C@H]1C(=O)O classification=T
compound=Cc1c(Cn2c(C)nc3c(C(=O)O)cc(N4CCOCC4)cc32)cccc1C(F)(F)F classification=F
compound=CC[C@H](c1ccc(O)cc1)[C@@H](CC)c1ccc(O)cc1 classification=T
compound="CC(CCc1ccc2c(c1)OCO2)NN (stereo not given)" classification=F
compound="CC(C)NCC(O)c1ccc2ccccc2c1 (stereo not given)" classification=F
compound=O=C1NC(=O)[C@@H](c2c[nH]c3ccccc23)[C@H]1c1cn2c3c(cccc13)CCC2 classification=T
compound="OC1CCC(Nc2ncc3nc(Nc4c(F)cc(F)cc4F)n([C@@H]4CCOC4)c3n2)CC1 (stereo not given in full)" classification=F
